Assay: Half life in ICR mouse at 1 mg/kg, iv measured upto 24 hrs by LCMS analysis
Assay type: ADME, organism-based
Conditions: in vivo
RECORDED METRIC: half-life
Could you kindly put the unit after your number?

The compound `O=C(O)CN1CCc2nc(OCc3cccc(-c4ccccc4F)c3Cl)ccc2C1` showed half-life equal to 3.51 h

* * *

pIC50 reference
Target: Programmed cell death protein 1/Programmed cell death 1 ligand 1 (Homo sapiens, UniProt Q9NZQ7)
Sequence (Q9NZQ7 whole entry, one chain of several): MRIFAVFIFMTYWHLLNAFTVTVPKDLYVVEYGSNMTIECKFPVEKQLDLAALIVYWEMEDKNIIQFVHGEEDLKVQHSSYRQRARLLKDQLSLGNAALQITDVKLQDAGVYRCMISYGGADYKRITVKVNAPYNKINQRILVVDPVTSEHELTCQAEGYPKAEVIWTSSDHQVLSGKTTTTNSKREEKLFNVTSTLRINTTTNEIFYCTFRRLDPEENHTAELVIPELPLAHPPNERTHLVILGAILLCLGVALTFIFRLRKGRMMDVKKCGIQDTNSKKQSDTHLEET
As a rule, pIC50 stands for the negative log10 of the concentration, concentration in M.

{"columns": ["MOLECULE", "pIC50"],
 "data": [
  ["COC(=O)CN1CCc2nc(OCc3cccc(-c4ccccc4F)c3Cl)ccc2C1", 6.43]
]}

The molecule CCOC(=O)C(C)N1CCc2nc(OCc3cccc(-c4ccccc4F)c3Cl)ccc2C1 (stereo not given) showed pIC50 equal to 6.23

The molecule `OCCN1CCc2nc(OCc3cccc(-c4ccccc4F)c3F)ccc2C1` showed pIC50 equal to 6.98

The molecule `CCOC(=O)CCN1CCc2nc(OCc3cccc(-c4ccccc4F)c3Cl)ccc2C1` showed pIC50 equal to 6.62

The molecule `CC(C)Oc1cccc(-c2cccc(NC(=O)c3ccc4c(n3)CCN(CCO)C4)c2Cl)c1F` showed pIC50 equal to 7.08

* * *

Target: Programmed cell death protein 1 (Homo sapiens)
Sequence (Q15116 whole entry): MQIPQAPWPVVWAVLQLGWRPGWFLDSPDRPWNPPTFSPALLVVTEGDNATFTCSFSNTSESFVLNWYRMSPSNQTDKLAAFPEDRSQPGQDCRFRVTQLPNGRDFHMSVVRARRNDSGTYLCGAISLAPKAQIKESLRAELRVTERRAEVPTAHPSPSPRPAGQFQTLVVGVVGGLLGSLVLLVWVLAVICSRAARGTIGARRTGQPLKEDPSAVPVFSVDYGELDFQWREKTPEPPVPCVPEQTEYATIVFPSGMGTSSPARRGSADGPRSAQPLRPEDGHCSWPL
Assay: Inhibition of human recombinant PD-1 by HTRF analysis
RECORDED METRIC: pIC50
As a rule, pIC50 stands for the negative log10 of the concentration, concentration in M.

The molecule `Cc1c(Nc2nccc3cc(CN4CC[C@@H](O)C4)cnc23)cccc1-c1cccc(-c2nc3ccc(CN4CC[C@@H](C(=O)O)C4)c(C#N)c3o2)c1C` showed pIC50 equal to 8.51

* * *

Assay: MRT (0 to infinity) in ICR mouse at 1 mg/kg, iv measured upto 24 hrs by LCMS analysis
Type: ADME, organism-based
Conditions: in vivo
RECORDED METRIC: MRT inf (h)
Numeric answer only, unit h assumed.

The compound `O=C(O)CN1CCc2nc(OCc3cccc(-c4ccccc4F)c3Cl)ccc2C1` showed MRT inf equal to 3.86

* * *

Test: AUC (0 to infinity) in ICR mouse at 10 mg/kg, IG measured upto 24 hrs by LCMS analysis
Type: ADME, organism-based
Details: in vivo, po
RECORDED METRIC: AUC(0-inf) (ng·h/mL)
Numeric answer only, unit ng·h/mL assumed.

The compound `O=C(O)CN1CCc2nc(OCc3cccc(-c4ccccc4F)c3Cl)ccc2C1` showed AUC(0-inf) equal to 10500

* * *

Test: AUC (0 to t) in ICR mouse at 1 mg/kg, iv measured upto 24 hrs by LCMS analysis
Assay type: ADME, organism-based
Details: in vivo
RECORDED METRIC: AUC(0-t) at 24 h
Could you kindly put the unit after your number?

The molecule `O=C(O)CN1CCc2nc(OCc3cccc(-c4ccccc4F)c3Cl)ccc2C1` showed AUC(0-t) at 24 h equal to 1800 ng·h/mL

* * *

Assay: Clearance in ICR mouse at 1 mg/kg, iv measured upto 24 hrs by LCMS analysis
Format: ADME, organism-based
Details: in vivo
RECORDED METRIC: clearance

The compound `O=C(O)CN1CCc2nc(OCc3cccc(-c4ccccc4F)c3Cl)ccc2C1` showed clearance equal to 9.55 mL/min/kg

* * *

Biological target: Programmed cell death protein 1/Programmed cell death 1 ligand 1 (Homo sapiens, UniProt Q9NZQ7)
RECORDED METRIC: IC50

Worked set:
{"columns": ["MOLECULE", "MEASURED RESULT"],
 "data": [
  ["O=C(Nc1cccc(-c2ccccc2F)c1Cl)c1ccc2c(n1)CCN(CCO)C2", "21.6 nM"],
  ["CC(C(=O)O)N1CCc2nc(OCc3cccc(-c4ccccc4F)c3Cl)ccc2C1 (stereo not given)", "31.3 nM"],
  ["CCOC(=O)CN1CCc2nc(C(=O)Nc3cccc(-c4cccc(Cl)c4F)c3Cl)ccc2C1", "> 1000 nM"]
]}

The molecule `Cc1c(COc2ccc3c(n2)CCN(CCO)C3)cccc1-c1ccccc1F` showed IC50 equal to 170 nM

The molecule `OCCN1CCc2nc(OCc3cccc(-c4ccccc4Cl)c3F)ccc2C1` showed IC50 equal to 101 nM

The molecule `OCCN1CCc2nc(OCc3cccc(-c4ccccc4Cl)c3Cl)ccc2C1` showed IC50 equal to 95.1 nM

The molecule `O=C(Nc1cccc(-c2cccc(F)c2F)c1Cl)c1ccc2c(n1)CCN(CCO)C2` showed IC50 equal to 20.1 nM

The molecule `NC(=O)CN1CCc2nc(OCc3cccc(-c4ccccc4F)c3Cl)ccc2C1` showed IC50 equal to 157 nM

The molecule `O=C(Nc1cccc(-c2cccc(Cl)c2F)c1Cl)c1ccc2c(n1)CCN(CCO)C2` showed IC50 equal to 24.2 nM

The molecule `OCCN1CCc2nc(OCc3cccc(-c4ccccc4F)c3Cl)ccc2C1` showed IC50 equal to 19.8 nM

* * *

Assay: Half life in ICR mouse at 10 mg/kg, IG measured upto 24 hrs by LCMS analysis
Assay type: ADME, organism-based
Conditions: in vivo, po
RECORDED METRIC: half-life

The compound `O=C(O)CN1CCc2nc(OCc3cccc(-c4ccccc4F)c3Cl)ccc2C1` showed half-life equal to 4.95 h

* * *

Target: Programmed cell death 1 ligand 1 (Mus musculus)
Sequence (Q9EP73 whole entry): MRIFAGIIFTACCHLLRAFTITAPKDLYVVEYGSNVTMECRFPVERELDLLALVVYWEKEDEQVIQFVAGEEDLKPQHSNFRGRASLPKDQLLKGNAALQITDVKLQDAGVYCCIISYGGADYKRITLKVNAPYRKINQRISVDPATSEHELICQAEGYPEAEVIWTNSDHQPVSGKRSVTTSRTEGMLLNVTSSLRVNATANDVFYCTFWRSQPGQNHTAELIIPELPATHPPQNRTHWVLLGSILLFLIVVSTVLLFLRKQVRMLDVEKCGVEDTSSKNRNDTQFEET
RECORDED METRIC: Kd

Measured Kd for this entry `O=C(O)CN1CCc2nc(OCc3cccc(-c4ccccc4F)c3Cl)ccc2C1` on Programmed cell death 1 ligand 1 (Mus musculus): 392 µM
